# credit: paper PMC10350915

target: T1, C-X-C motif chemokine receptor 4 (CXCR4) on Ghost-CXCR4 cells (UniProt P61073 1-352); experiment: flow cytometry on cells; competition with APC-labelled anti-CXCR4 antibody clone 12G5 at a fixed concentration close to its KD; Ghost-CXCR4 cells, 50,000 cells/well; ligands serially diluted in PBS; 4 °C, 2 h; PBS with 1% FBS; conditions: one partner purified
T1 construct: CXCR4 stably expressed in Ghost cells (NIH HIV Reagent Program); source: Ghost cells (human osteosarcoma cell line) stably transfected with CXCR4, also expressing CD4; on cells
T1 sequence (P61073 whole entry): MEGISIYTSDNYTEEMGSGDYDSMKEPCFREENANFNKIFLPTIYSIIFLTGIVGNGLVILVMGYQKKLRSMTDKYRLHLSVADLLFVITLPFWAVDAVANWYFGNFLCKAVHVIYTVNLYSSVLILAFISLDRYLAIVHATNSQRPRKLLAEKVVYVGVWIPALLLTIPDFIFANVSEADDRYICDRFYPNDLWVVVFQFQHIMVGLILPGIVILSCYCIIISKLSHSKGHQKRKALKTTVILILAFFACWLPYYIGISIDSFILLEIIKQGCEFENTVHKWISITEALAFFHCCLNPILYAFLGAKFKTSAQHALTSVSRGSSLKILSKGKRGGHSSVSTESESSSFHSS
Square brackets hold non-standard residues; d marks the D form. Side chains are listed from the residue outwards. Ends that are not written are not given here. * marks the point of attachment. DOTA = O=C(O)CN1CCN(CC(=O)O)CCN(CC(=O)*)CCN(CC(=O)O)CC1; Palmitoyl = CCCCCCCCCCCCCCCC(=O)*
Field 'label' (enum: 1 / 0). Set to 1 when IC50 is strictly under 200 nM; else 0.

[
  {
    "binder": "[dL]LRWSRK([Glu-Palmitoyl])K(DOTA)-NH2 (main chain of 8 residues; source: synthetic peptide (Fmoc solid phase synthesis, RP-HPLC purified)) [ligand-9]",
    "label.class": 1
  },
  {
    "binder": "ILRWSRKLPCVSK(DOTA) (also: natLu complexed by DOTA, natLu and 177Lu complexes are written as one molecule; they differ only in the isotope; also called ^177Lu-1; Lu complex of ligand-1 (monomer); source: synthetic peptide, complexed with natLuCl3, monomer isolated by semipreparative RP-HPLC; ^177Lu form labelled with 177LuCl3 in the presence of DTT) [^natLu-1]",
    "label.class": 0
  },
  {
    "binder": "ILRWSRKK(DOTA)-NH2 (truncated JM#21 derivative with added C-terminal K(DOTA)-NH2; source: synthetic peptide (Fmoc solid phase synthesis, RP-HPLC purified)) [ligand-4]",
    "label.class": 0
  },
  {
    "binder": "IVRWSKK(Palmitoyl)VPCSK(DOTA) (also: natLu complexed by DOTA) [^natLu-8]",
    "label.class": 1
  },
  {
    "binder": "ILRWSRK(DOTA)-NH2 (N-terminus assumed; SMILES CC[C@H](C)[C@H](N)C(=O)N[C@@H](CC(C)C)C(=O)N[C@@H](CCCNC(=N)N)C(=O)N[C@@H](Cc1c[nH]c2ccccc12)C(=O)N[C@@H](CO)C(=O)N[C@@H](CCCNC(=N)N)C(=O)N[C@@H](CCCCNC(=O)CN1CCN(CC(=O)O)CCN(CC(=O)O)CCN(CC(=O)O)CC1)C(N)=O, shortest truncated JM#21 derivative; DOTA on its own K7; source: synthetic peptide (Fmoc solid phase synthesis, RP-HPLC purified)) [ligand-5]",
    "label.class": 0
  },
  {
    "binder": "ILRWSRKLPCVS (activity-optimised, truncated 12-mer derivative of EPI-X4 (rational design); source: synthetic peptide) [EPI-X4 JM#21]",
    "label.class": 1
  },
  {
    "binder": "[dL]LRWSRKLPCVSK(DOTA) (as ligand-1 with isoleucine 1 substituted by D-leucine; source: synthetic peptide (Fmoc solid phase synthesis, RP-HPLC purified)) [ligand-6]",
    "label.class": 0
  },
  {
    "binder": "[dL]LRWSRK([Glu-Palmitoyl])K(DOTA)-NH2 (also: natLu complexed by DOTA, natLu and 177Lu complexes are written as one molecule; they differ only in the isotope; also called ^177Lu-9; Lu complex of ligand-9; source: synthetic peptide, complexed with natLuCl3; ^177Lu form labelled with 177LuCl3) [^natLu-9]",
    "label.class": 1
  },
  {
    "binder": "[dL]LRWSRKLPCVSK(DOTA) (also: DOTA complexed with natLu, natLu and 177Lu complexes are written as one molecule; they differ only in the isotope; also called ^177Lu-6; Lu complex of ligand-6 (monomer); source: synthetic peptide, complexed with natLuCl3, monomer isolated by semipreparative RP-HPLC; ^177Lu form labelled with 177LuCl3 in the presence of DTT) [^natLu-6]",
    "label.class": 0
  },
  {
    "binder": "LVRYTKKVPQVSTPTL (16-mer fragment of human serum albumin; also called wild-type EPI-X4; source: synthetic peptide) [EPI-X4 (endogenous peptide inhibitor of CXCR4)]",
    "label.class": 0
  },
  {
    "binder": "[dI]LRWSRKK(DOTA)-NH2 (also: natLu complexed by DOTA, natLu and 177Lu complexes are written as one molecule; they differ only in the isotope; also called ^177Lu-7; Lu complex of ligand-7; source: synthetic peptide, complexed with natLuCl3; ^177Lu form labelled with 177LuCl3) [^natLu-7]",
    "label.class": 0
  }
]
